Where do these numbers come from? They come from patent US20080267942A1.

Molecular target: bovine beta-2 adrenoceptor (Bos taurus, UniProt Q28044)
Sequence (Q28044 whole entry): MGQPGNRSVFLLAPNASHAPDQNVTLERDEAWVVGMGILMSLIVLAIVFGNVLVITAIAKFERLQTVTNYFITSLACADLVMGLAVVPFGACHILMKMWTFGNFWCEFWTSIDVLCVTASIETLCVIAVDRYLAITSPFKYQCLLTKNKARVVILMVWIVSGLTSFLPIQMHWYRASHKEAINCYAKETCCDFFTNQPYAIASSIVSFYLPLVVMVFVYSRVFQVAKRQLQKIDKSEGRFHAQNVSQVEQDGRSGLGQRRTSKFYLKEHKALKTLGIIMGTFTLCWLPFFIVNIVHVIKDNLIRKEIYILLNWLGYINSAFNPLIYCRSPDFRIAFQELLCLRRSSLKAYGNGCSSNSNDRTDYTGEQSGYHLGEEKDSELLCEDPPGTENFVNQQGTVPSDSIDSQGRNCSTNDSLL
Assay: cAMP assay in CHO cells transfected with the bovine beta-2 adrenoceptor (DiscoveRx Hit Hunter cAMP II)
Conditions: CHO cells transfected with bovine beta-2 adrenoceptor, 30 minutes incubation with compound

| compound | measurement-unit | EC50 |
| --- | --- | --- |
| C[C@H](CCc1cnco1)N[C@@H]1CCn2c(=O)[nH]c3cccc(c32)[C@H]1O | nM | 18.7 |
| CC(CCc1c[nH]c2cnccc12)N[C@@H]1CCn2c(=O)[nH]c3cccc(c32)[C@H]1O (mixture of isomers) [Example 32c] | nM | 18 |
| Cc1[nH]c2ccc(F)cc2c1CCC(C)N[C@@H]1CCn2c(=O)[nH]c3cccc(c32)[C@H]1O (single isomer, unassigned) | nM | 2.7 |
| Cc1cc(C)n(CCC(C)N[C@@H]2CCn3c(=O)[nH]c4cccc(c43)[C@H]2O)n1 (single isomer, unassigned) | nM | 169 |
| CC(CCc1nc2ccccc2[nH]1)NC1CCn2c(=O)[nH]c3cccc(c32)C1O (stereo not shown) | nM | 34 |
| CC(CCc1ccc(N)nc1)N[C@@H]1CCn2c(=O)[nH]c3cccc(c32)[C@H]1O (single isomer, unassigned) | nM | 3 |
| O=c1[nH]c2cccc3c2n1CCC(NCCCc1c[nH]c2ccccc12)C3O (stereo not shown) | nM | 50 |

----------
Molecular target: porcine beta-2 adrenoceptor (Sus scrofa, UniProt Q28997)
Sequence (Q28997 whole entry): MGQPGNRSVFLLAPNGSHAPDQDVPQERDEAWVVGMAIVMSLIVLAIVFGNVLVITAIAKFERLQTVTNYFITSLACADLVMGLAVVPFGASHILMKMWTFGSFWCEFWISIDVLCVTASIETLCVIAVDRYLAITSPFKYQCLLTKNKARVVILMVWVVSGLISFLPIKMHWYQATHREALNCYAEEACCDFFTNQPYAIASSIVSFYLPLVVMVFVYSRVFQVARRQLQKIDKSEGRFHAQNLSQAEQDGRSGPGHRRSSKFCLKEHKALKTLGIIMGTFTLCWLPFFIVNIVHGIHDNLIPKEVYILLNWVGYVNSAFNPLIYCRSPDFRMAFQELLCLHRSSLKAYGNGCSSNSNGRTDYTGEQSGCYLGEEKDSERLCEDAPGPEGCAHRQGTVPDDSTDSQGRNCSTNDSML
Experiment: cAMP assay in CHO cells transfected with the porcine beta-2 adrenoceptor (DiscoveRx Hit Hunter cAMP II)
Conditions: CHO cells transfected with porcine beta-2 adrenoceptor, 30 minutes incubation with compound
pEC50: −log10 of the molar value.
pEC50 listing for selected compounds.

| compound | pEC50 |
| --- | --- |
| C[C@H](CCc1c[nH]c2ccccc12)N[C@@H]1CCn2c(=O)[nH]c3cccc(c32)[C@H]1O [Example 4f] | 8.60 |
| Cc1nn(C)c(C)c1CCC(C)N[C@@H]1CCn2c(=O)[nH]c3cccc(c32)[C@H]1O (single isomer, unassigned) [Example 9a] | 6.57 |
| Cc1ncc(CCC(C)N[C@@H]2CCn3c(=O)[nH]c4cccc(c43)[C@H]2O)s1 (mixture of isomers) [Example 28a] | 6.98 |
| CC(CCn1cncn1)N[C@@H]1CCn2c(=O)[nH]c3cccc(c32)[C@H]1O (single isomer, unassigned) | 7.74 |
| CC(CC(C)(C)c1c[nH]c2ccccc12)N[C@@H]1CCn2c(=O)[nH]c3cccc(c32)[C@H]1O (mixture of isomers) | 8.21 |
| CC(CCc1cn(C)c2ccccc12)N[C@@H]1CCn2c(=O)[nH]c3cccc(c32)[C@H]1O (mixture of isomers) [Example 14b] | 8.24 |
| CC(CCn1cnc2ncccc21)N[C@@H]1CCn2c(=O)[nH]c3cccc(c32)[C@H]1O (single isomer, unassigned) | 8.55 |

----------
Target: UniProt:Q28997
Assay: cAMP assay in CHO cells transfected with the porcine beta-2 adrenoceptor (DiscoveRx Hit Hunter cAMP II)
Conditions: CHO cells transfected with porcine beta-2 adrenoceptor, 30 minutes incubation with compound
pEC50: −log10 of the molar value.
pEC50 listing for selected compounds.

| compound | pEC50 |
| --- | --- |
| CC(Cc1ccco1)NC1CCn2c(=O)[nH]c3cccc(c32)C1O (stereo not shown) | 7.19 |
| Cc1nc(C)c(CCC(C)N[C@@H]2CCn3c(=O)[nH]c4cccc(c43)[C@H]2O)s1 (single isomer, unassigned) [Example 23a] | 6.92 |
| CC(CCc1cn(Cc2ccccc2)c2ccccc12)N[C@@H]1CCn2c(=O)[nH]c3cccc(c32)[C@H]1O (mixture of isomers) | 7.01 |
| CC(CCc1c[nH]c2cccnc12)N[C@@H]1CCn2c(=O)[nH]c3cccc(c32)[C@H]1O (single isomer, unassigned) | 8.00 |
| O=c1[nH]c2cccc3c2n1CCC(NCCCc1c[nH]c2ccccc12)C3O (stereo not shown) | 7.19 |
| CC(CCc1ccc2occc2c1)N[C@@H]1CCn2c(=O)[nH]c3cccc(c32)[C@H]1O (mixture of isomers) | 7.96 |
| C[C@H](CCc1cnco1)N[C@@H]1CCn2c(=O)[nH]c3cccc(c32)[C@H]1O | 8.21 |
